# Assay Text: cancer stem cell viability inhibitors, primary screen, luminescence (AID 2717)
# Condition Description: cancer stem cell-like cells viability, at 7.5 µM
Screen size: about 300,000 compounds; about 3,200 (1.1%) were called active. Cut-off read from the data, not from the text of the source: active = inhibition above about 75%; inconclusive = no clear call, values can overlap the other calls; inactive = below that; tested in HMLE shEcad cells. This excerpt belongs to a sample that is enriched for actives.
// classify into active, inactive

Lookup: Which outcome was assigned to O=C(/C=C/c1ccc2c(c1)OCCO2)c1ccc(O)cc1 in this test?
Found: inactive

Lookup: Likewise for CN1C(=O)/C(=C/c2ccc(C(=O)NC3CCCC3)cc2)Oc2ccccc21 ?
Found: inactive

Lookup: Likewise for CCN(C(=O)CSc1nnnn1-c1ccc(OC)cc1)C1CCS(=O)(=O)C1 (stereo not given) ?
Found: inactive

Lookup: Likewise for COc1ccccc1-c1sc2ccccc2c1-c1ccc(Br)nc1 ?
Found: inactive

Lookup: Likewise for O=C(O)c1cccc(S(=O)(=O)Nc2ccc(O)cc2Sc2nc3ccccc3s2)c1 ?
Found: inactive

Lookup: Likewise for O=C(Nc1ccccc1Cl)Nn1cnnc1 ?
Found: inactive

Lookup: Likewise for O=C(Nc1ccccc1Cl)/C(Cl)=C(\Cl)S(=O)c1ccccc1 (stereo not given) ?
Found: active

Lookup: Likewise for Cn1c(N)c(C(=O)COC(=O)c2cccc(S(=O)(=O)N3CCOCC3)c2)c(=O)n(C)c1=O ?
Found: inactive

Lookup: Likewise for Cc1nn(-c2ccccc2)c(C)c1NC(=O)COc1ccc(Cl)cc1Cl ?
Found: inactive

Lookup: Likewise for O=C(COC(=O)c1cccs1)Nc1ccccc1Cl ?
Found: inactive

Lookup: Likewise for COc1ccc(C(=O)N2CCN(c3ccc(C(C)=O)cc3F)CC2)cc1S(=O)(=O)NC1CC1 ?
Found: inactive

Lookup: Likewise for O=C(Nc1ccncc1)c1ccc(Cl)c([N+](=O)[O-])c1 ?
Found: inactive

Lookup: Likewise for c1ccc(-c2ccccc2OCCN2CCCCC2)cc1 ?
Found: inactive

Lookup: Likewise for COc1ccc(-c2c(-c3cc(OC)cc(OC)c3)n(C)c3ccc(-c4ccn[nH]4)cc23)cc1 ?
Found: active

Lookup: Likewise for O=C(CCNC(=O)c1ccccc1Cl)NN=Cc1ccco1 ?
Found: inactive

Lookup: Likewise for COc1cc(OC)cc(-c2c(-c3cccs3)c3cc(-c4ccc(OC)nc4)ccc3n2C)c1 ?
Found: inactive

Lookup: Likewise for O=[N+]([O-])c1c(NCCO)cc(Sc2nc3ccccc3s2)c2nonc12 ?
Found: active

Lookup: Likewise for CCCCOc1ccc(C(=O)NCC(=O)OCC(=O)c2c(N)n(C)c(=O)n(C)c2=O)cc1 ?
Found: inactive

Lookup: Likewise for COc1cc(S(=O)(=O)N2CCN(C(=O)C3CC3)CC2)ccc1NC(C)=O ?
Found: inactive

Lookup: Likewise for CCOc1ccccc1NC(=O)CCc1ccc(C)o1 ?
Found: inactive

Lookup: Likewise for COC(=O)c1c(NC(=O)COc2ccc(Cl)cc2Cl)sc2c1CC(C)(C)NC2(C)C ?
Found: active

Lookup: Likewise for O=C(COC(=O)c1n[nH]c2ccccc12)Nc1ccccc1Br ?
Found: inactive

Lookup: Likewise for Cc1ccc(CCC(=O)Nc2ncc(Cc3cc(Cl)ccc3Cl)s2)o1 ?
Found: active

Lookup: Likewise for COC(=O)c1sc(-c2ccc(C(C)(C)C)cc2)cc1NC(=O)/C=C/C(=O)O ?
Found: active

Lookup: Likewise for Cc1ccc(C(=O)Nc2nc3ccc(Cl)cc3s2)o1 ?
Found: inactive

Lookup: Likewise for COCCNc1cc(-c2ccccc2)nc2cc(-c3cccc(F)c3)nn12 ?
Found: active

Lookup: Likewise for CN(C)c1ccc(/C=C/C(=O)c2ccc(O)cc2)cc1[N+](=O)[O-] ?
Found: inactive

Lookup: Likewise for CN1CCN(CCCNC(=O)c2ccc(/C=C3\Oc4ccccc4N(Cc4ccc(Cl)cc4)C3=O)cc2)CC1 ?
Found: active

Lookup: Likewise for CC(=O)Nc1ccc(/C=C/C(=O)c2ccccc2)cc1 ?
Found: inactive

Lookup: Likewise for COC(=O)c1ccc(/C=C/c2c(-c3ccc(OC)cc3)sc3ccccc23)cc1 ?
Found: active
